Sourced from PubChem BioAssay AID1159580

assay.info: chemical genetic growth profiling, strain panel (AID 1159580);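 also: tested at 20 µM; growth read once vehicle control cultures reached saturation at 30 °C; 1 = growth at the plate median or of vehicle wells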
cond: S. cerevisiae deletion strains, growth OD, locus YBR171W, strain sec66, stronger effect = lower value
The campaign covered roughly 5,500 compounds. About 2,000 (36%) were called active. Another 18% or so got no clear call; they are omitted. The list shows a part of the results.
metric: normalized growth
Number, no unit, nothing else.

### Prompt Please look up its normalized growth: `Cn1c([N+](=O)[O-])cnc1COC(N)=O`
### Response 1.01

### Prompt Could you tell me which normalized growth is on file for `OCCN1CCN(CCCN2c3ccccc3Sc3ccc(Cl)cc32)CC1` ?
### Response 1.01

### Prompt # normalized growth lookup, item CC(=O)Oc1ccc2c(c1)CCC1C2CCC2(C)C1CC(OC(C)=O)C2OC(C)=O (stereo not given)
### Response 1

### Prompt Reported normalized growth for CCOc1nc2cccc(C(=O)OC(C)OC(=O)OC3CCCCC3)c2n1Cc1ccc(-c2ccccc2-c2nn[nH]n2)cc1 (stereo not given) : what is it?
### Response 1.05

### Prompt Entry under review: `COc1ccc2ccc(=O)oc2c1CC=C(C)C` . Reported normalized growth?
### Response 0.896

### Prompt Item under review: `COc1c2occc2cc2ccc(=O)oc12` . Reported normalized growth?
### Response 0.945

### Prompt Quick one: normalized growth for `O=c1c(-c2ccc3c(c2)OCO3)coc2cc(O)ccc12` ?
### Response 1

### Prompt Which normalized growth reading was recorded for the compound `O=C1c2ccccc2-c2cccc3cccc1c23` ?
### Response 0.964

### Prompt # lookup: normalized growth of `O=C(O)c1cc2cc(Cl)ccc2[nH]1`
### Response 0.986

### Prompt Quick one: normalized growth for `CC(C)=CCOc1c2occc2cc2ccc(=O)oc12` ?
### Response 0.865

### Prompt Name the recorded normalized growth for `O=C(O)c1cccc(O)c1O` .
### Response 1.03

### Prompt If you can, please state the reported normalized growth value of CSCCC(NC=O)C(=O)NC(CC(C)C)C(=O)NC(Cc1ccccc1)C(=O)O (stereo not given) .
### Response 0.998

### Prompt Fill in: normalized growth of `COc1c2c(cc3occ(-c4ccc5c(c4)OCO5)c(=O)c13)OC(C)(C)C=C2` is ___
### Response 0.988

### Prompt So what's the measured normalized growth for this one? C[N+]1(C)C2CC[C@H]1CC(OC(=O)C(O)c1ccccc1)C2 (stereo not given in full)
### Response 1

### Prompt State the recorded normalized growth for this entry: C[C@]12CCC3c4ccc(O)cc4CCC3C1CC[C@@H]2OC(=O)CCC1CCCC1 (stereo not given in full)
### Response 1.02

### Prompt # normalized growth lookup, item `C[C@H]1C(=O)O[C@@H]2CCN3CC=C(COC(=O)[C@](C)(O)[C@]1(C)O)[C@H]23`
### Response 0.987

### Prompt Which normalized growth is listed for CCC(=O)O[C@H]1CCC2C3CCc4cc(O)ccc4C3CC[C@@]21C (stereo not given in full) ?
### Response 0.997

### Prompt Entry under review: `COc1cc2c(cc1-c1coc3c4c(c(OC)cc3c1=O)OC(C)(C)C=C4)OCO2` . Reported normalized growth?
### Response 1.03

### Prompt So what's the measured normalized growth for this one? `CCCCCN=C(N)N/N=C\c1c[nH]c2ccc(OC)cc12`
### Response 1.03

### Prompt Look up normalized growth: `COc1ccc2c(=O)c(-c3cc4c(cc3OC)OCO4)coc2c1`
### Response 1.01

### Prompt Which value of normalized growth has been reported for `CN1CCN(C(c2ccccc2)c2ccccc2)CC1` in the records?
### Response 0.975

### Prompt Request the reported normalized growth associated with COc1cc(OC)c2c(c1Cl)OC1(C2=O)C(O)=CC(=O)CC1C (stereo not given)
### Response 1.03

### Prompt Requested read-out: normalized growth. Entry: Cn1nnnc1SCC1=C(C(=O)O)N2C(=O)C(NC(=O)C(OC=O)c3ccccc3)C2SC1 (stereo not given)
### Response 0.984

### Prompt # input compound: CC1=C2CCC3C(CC[C@]4(C)C(=O)CCC34)[C@@]2(C)CCC1=O (stereo not given in full) ; wanted: its normalized growth
### Response 0.977

### Prompt Record request: normalized growth value, item `Nc1ncnc2nc[nH]c12`
### Response 0.976

### Prompt Would you mind telling me what normalized growth value was observed for `CCNc1nc(Cl)nc(NC(C)C)n1` ?
### Response 0.995

### Prompt Consider the compound `O=C(O)CCCN1C(=O)c2cccc3cccc(c23)C1=O` and give its measured normalized growth.
### Response 1.01

### Prompt Item `CCCCC/C=C\C/C=C\C/C=C\C/C=C\CCCC(=O)O` has what recorded normalized growth?
### Response 0.979

### Prompt Find the recorded normalized growth belonging to `COc1cc2ccc(=O)oc2c(OC)c1OC` and report it.
### Response 0.974

### Prompt Endpoint output: normalized growth of `CC(C)=CCc1c(O)cc2occ(-c3ccc4c(c3)OCO4)c(=O)c2c1O` . Value?
### Response 0.981

### Prompt Can you share its normalized growth? I mean this compound: `CC(=O)c1ccc2c(c1)N(CCCN(C)C)c1ccccc1S2`
### Response 0.988

### Prompt What measured normalized growth goes with `CC1(C)S[C@@H]2[C@H](NC(=O)COc3ccccc3)C(=O)N2[C@H]1C(=O)O` ?
### Response 0.969

### Prompt Requested read-out: normalized growth. Entry: `CC(C)=CCOc1cc2oc(=O)ccc2cc1O`
### Response 0.915

### Prompt Consider the compound shown here: `c1coc(CNc2ncnc3nc[nH]c23)c1` What is its recorded normalized growth?
### Response 0.994

### Prompt I am curious: what normalized growth value has been reported for `CC(C)=CCC/C(C)=C/COc1ccc2ccc(=O)oc2c1` ?
### Response 0.981

### Prompt Suppose we examine the compound CC(=O)Oc1ccc2c(c1)CCC1C2CC[C@@]2(C)C1CC[C@@H]2OC(C)=O (stereo not given in full) ; what normalized growth value has been reported?
### Response 0.921

### Prompt Entry `CN1CCN(CCCN2c3ccccc3Sc3ccc(Cl)cc32)CC1` : reported normalized growth = ?
### Response 0.987

### Prompt Form field: reported normalized growth of `CCCc1nc(C(C)(C)O)c(C(=O)OCc2oc(=O)oc2C)n1Cc1ccc(-c2ccccc2-c2nn[nH]n2)cc1`
### Response 0.957

### Prompt I would be grateful if you could share the reported normalized growth for `COc1cc2ccc(=O)oc2c2ccoc12` .
### Response 0.984

### Prompt Which normalized growth value belongs to CC(C)(O)CC[C@@H](O)[C@](C)(O)C1CC[C@@]2(O)C3=CC(=O)C4C[C@@H](O)[C@@H](O)C[C@]4(C)C3CC[C@]12C (stereo not given in full) ?
### Response 0.99

### Prompt Which normalized growth value is on record for `CC1(C)C=Cc2c(cc3occ(-c4ccc5c(c4)OCO5)c(=O)c3c2O)O1` ?
### Response 0.998

### Prompt Dear colleague, I am looking for the recorded normalized growth of the following compound: `CCCCC(=O)N(Cc1ccc(-c2ccccc2-c2nn[nH]n2)cc1)[C@H](C(=O)O)C(C)C`
### Response 0.986

### Prompt # lookup: normalized growth of `Cc1ncc([N+](=O)[O-])n1CCO`
### Response 0.982

### Prompt Recorded normalized growth for `COc1ccc2[nH]cc(CCNC(C)=O)c2c1` , please?
### Response 0.966

### Prompt Using the record for CC(=O)O[C@H]1CC2CCC3C(CC[C@@]4(C)C3C[C@H]([N+]3(C)CCCCC3)[C@@H]4OC(C)=O)[C@@]2(C)C[C@@H]1[N+]1(C)CCCCC1 (stereo not given in full) , report its normalized growth.
### Response 1.04
